System: Plasmodium falciparum
assay protocol: Antimalarial activity against chloroquine resistant Plasmodium falciparum FcB1 infected in human red blood cells assessed as inhibition of liberation and reinvasion steps of the erythrocytes by parasites measured after 72 hrs by titrated hypoxanthine incorporation assay
Format: functional, organism-based, Red blood cell
experimental conditions: FcB1, Erythrocyte

compound: Clc1ccc2c(NCCNC3CCC4(CC3)OOC3(c5ccccc5)CC(c5ccccc5)=CC3O4)ccnc2c1 (stereo unspecified)
IC50 [nM]: 21

###

Tested on: Plasmodium falciparum
assay protocol: Antimalarial activity against chloroquine sensitive Plasmodium falciparum NF54 assessed as inhibition of parasite growth by [3H]-hypoxanthine incorporation assay
Assay type: functional, organism-based
In plain terms, low IC50, meaning strictly below 0.5 ng/mL, gives label 1, and everything else gives label 0.

molecule: c1cc(C2CCC3(CC2)OOC2(O3)C3CC4CC(C3)CC2C4)ccc1OCCN1CCOCC1 (stereo not given)
qualitative label: label 0
--
molecule: CC(C)(N)CNC(=O)C(=O)OC1CCCC2(C1)OOC1(O2)C2CC3CC(C2)CC1C3 (stereo not given)
qualitative label: label 0
--
molecule: O=C(O)CC1CCC2(CC1)OOC1(O2)C2CC3CC(C2)CC1C3 (stereo not given)
qualitative label: label 0
--
molecule: NCC1CCC2(CC1)OOC1(O2)C2CC3CC(C2)CC1C3 (stereo not given)
qualitative label: label 1
--
molecule: CC(C)(N)CNC(=O)CC1CCC2(CC1)OOC1(O2)C2CC3CC(C2)CC1C3 (stereo not given)
qualitative label: label 0

###

Tested on: Plasmodium falciparum
assay protocol: Antimalarial activity against Plasmodium falciparum 3D7 infected in human erythrocytes assessed as reduction in parasite growth measured after 72 hrs by microscopic analysis
Type: functional, organism-based
experimental conditions: 3D7, Erythrocyte
pEC50: −log10 of the molar value.
recorded metric: pEC50

input smiles: OCCCCCCC1COOC2(CCCCCCCCCCC2)OOC1
recorded metric: pEC50
result: 6.48
